- tested target: T1, human LIF protein (human, UniProt P15018 23-202)
- T1 construct: Bought recombinant protein (Sino Biological / Yiqiao Shenzhou 14890-HNAH) in most assays; also called recombinant human LIF protein; rhLIF
- T1 sequence (P15018 23-202 limits assumed): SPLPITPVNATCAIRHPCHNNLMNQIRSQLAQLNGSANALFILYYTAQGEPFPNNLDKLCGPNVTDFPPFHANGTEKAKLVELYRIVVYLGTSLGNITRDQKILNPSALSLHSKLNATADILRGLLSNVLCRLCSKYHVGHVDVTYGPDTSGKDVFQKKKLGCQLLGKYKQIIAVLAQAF
- test protocol: ELISA, antigen coated 0.5 ug/ml, 293S supernatant heated 70 C 5 min, antibody 1 ug/mL
Where ELISA signal equals or exceeds 10000, the correct label is T; where it does not, the label is F.

// query Determine whether this binder has ELISA signal no lower than 10000: H1L3 (antibody, human IgG1, kappa, N297A, V domains shown, Humanized, human IgG1 / kappa) VH: EVMLLESGGGLVQPGGSLRLSCAASGFIFSSYAMSWVRQAPGTGLEWVATISSGGSNTYSPDTVKGRFTISRDNSKNTLYLQMNSLRAEDTAVYYCARYYGYYFDFWGQGTLLTVSS VL: DIHMTQSPSSLSASVGDRVTITCRASENIYSYLAWYQQKPGKSPQLLVYNAKTLAEGVPSRFSGSGSGTQFTLTISSLQPEDFATYYCQHHYVTPLTFGQGTKLEIKR
// result F

// query Quick check: does 38E HuH2L4 (antibody, human IgG1, kappa, V domains shown, Humanized, human IgG1 / kappa) VH: EVMLVESGGGLVQPGGSLRLSCAASGFIFSSYAMSWVRQAPGTGLEWVATISSGGSNTYSPDTVKGRFTISRDNSKNTLYLQMNSLRAEDTAMYYCARYYGYYFDFWGQGTLLTVSS VL: DIHMTQSPSSLSASVGDRVTITCRASENIYSYLAWYQQKQGKSPQLLVYNAKTLAEGVPSRFSGSGSGTQFTLKINSLQPEDFATYYCQHHYVTPLTFGQGTKLEIKR have ELISA signal greater than or equal to 10000?
// result T

// query Is ELISA signal for H3L3 (antibody, human IgG1, kappa, N297A, V domains shown, Humanized, human IgG1 / kappa) VH: EVMLVESGGGLVQPGGSLRLSCAASGFIFSSYAMSWVRQAPETRLEWVATISSGGSNTYSPDTVKGRFTISRDNSKNTLYLQMNSLRAEDTAMYYCARYYGYYFDFWGQGTLLTVSS VL: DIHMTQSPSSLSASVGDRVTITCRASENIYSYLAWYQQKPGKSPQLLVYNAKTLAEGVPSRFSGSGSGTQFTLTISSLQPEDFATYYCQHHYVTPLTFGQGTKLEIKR at or above 10000?
// result F

// query Hi, just wondering whether 38E HuH1L4 (antibody, human IgG1, kappa, N297A, V domains shown, Humanized, human IgG1 / kappa) VH: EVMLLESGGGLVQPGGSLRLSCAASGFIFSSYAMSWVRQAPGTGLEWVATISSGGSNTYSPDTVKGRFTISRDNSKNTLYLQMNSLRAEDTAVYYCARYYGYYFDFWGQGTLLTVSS VL: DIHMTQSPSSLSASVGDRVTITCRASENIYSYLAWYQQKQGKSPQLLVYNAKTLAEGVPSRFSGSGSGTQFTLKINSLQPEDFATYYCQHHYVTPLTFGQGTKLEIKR shows ELISA signal of 10000 or higher.
// result T
